tested on: ubiquinone binding site of complex I (IQ); assay: High-throughput screen: ROS production from ubiquinone binding site of complex I (IQ), isolated skeletal muscle mitochondria; type: biochemical, rat; details: Table 7; percent change in ROS from DMSO controls
Rule: IQ below -3 gives 1, anything at or above gives 0.

{"columns": ["Compound", "Label"],
 "data": [
  ["O=S(=O)(Nc1ccc(Br)cc1)c1ccc(C2CCCCC2)cc1", 1],
  ["COC(=O)c1ccc(CN(CCc2ccccc2)Cc2ccccc2)cc1", 0],
  ["Cc1ccc(NS(=O)(=O)c2ccc(C3CCCCC3)cc2)cc1", 1],
  ["C=C(C)CN(CC)Cc1cc([N+](=O)[O-])ccc1Cl", 0],
  ["O=C(Nc1ccc(Br)cc1)[C@@H]1C2C=CC(C2)[C@@H]1C(=O)O (stereo partly drawn)", 0]
]}

Strictly below -3 in IQ? Cl.OC12CCCCC1C(c1cccc(Cl)c1)NCC2 (stereo not drawn) 0

Strictly below -3 in IQ? O=[N+]([O-])c1ccc(Oc2ccc(S(=O)(=O)Nc3ccc(F)cc3)cc2)cc1 1

Is the reported IQ for O=[N+]([O-])c1ccc(Oc2ccc(S(=O)(=O)NC3CCCCC3)cc2)cc1 strictly below -3? 1

In the record for COc1ccc(/C=C2\C(=O)NC(=S)N(c3ccccc3)C2=O)cc1Br , is IQ less than -3? 0
